Each recorded value in this set is attributed to the supplement of paper PMC10724198.

# Test system: Saccharomyces cerevisiae;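 also: PSI is a weighted mean of sequencing reads over stability bins, variants kept only with over 10 reads, mCherry proximal and sfGFP distal, peptide attached via GGGS linker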
# RUN DESCRIPTION: protein stability index of tFT-peptide fusion (C-terminal peptide) (PSI (0-1 scale)); higher = more stable (slower turnover)
# PARTICULARS: genetic background: wild type; temperature: 30 C
MEASURED QUANTITY: protein stability index

INSERT INTO results (polymer_sequence, measured_target, recorded_value) VALUES
  ('SFFFSFFPYFFC', 'Saccharomyces cerevisiae', 0.394),
  ('SGMLVYFGTVCY', 'Saccharomyces cerevisiae', 0.357),
  ('VLYLQCITSAGH', 'Saccharomyces cerevisiae', 0.29),
  ('PPPRSLSPPLLS', 'Saccharomyces cerevisiae', 0.659),
  ('CFCPILFPRCLA', 'Saccharomyces cerevisiae', 0.139),
  ('CPVSFSFCLKVL', 'Saccharomyces cerevisiae', 0.0823),
  ('GCYWPKTLGILC', 'Saccharomyces cerevisiae', 0.378),
  ('YYFFLTFLCYVF', 'Saccharomyces cerevisiae', 0.112),
  ('MALAVRVVYCGA', 'Saccharomyces cerevisiae', 0.283),
  ('CFGFMFLLLFDV', 'Saccharomyces cerevisiae', 0.317),
  ('FLFFWRASLFFW', 'Saccharomyces cerevisiae', 0.15),
  ('FPFFLLAAPFLA', 'Saccharomyces cerevisiae', 0.19),
  ('WSCFLLLLSLSL', 'Saccharomyces cerevisiae', 0.411),
  ('VIWIRMISFFVW', 'Saccharomyces cerevisiae', 0.188),
  ('ASFVCWSVCALG', 'Saccharomyces cerevisiae', 0.398),
  ('FPRQFVYLPLLF', 'Saccharomyces cerevisiae', 0.402),
  ('GRLVPVILLKLV', 'Saccharomyces cerevisiae', 0.0651),
  ('LGFFIFSFLILK', 'Saccharomyces cerevisiae', 0.124),
  ('KAEKNSKKTSTE', 'Saccharomyces cerevisiae', 0.649),
  ('WRVVVSCALHVC', 'Saccharomyces cerevisiae', 0.0423),
  ('SFTVFVVLLFPP', 'Saccharomyces cerevisiae', 0.304),
  ('PPPPPSRPFSPP', 'Saccharomyces cerevisiae', 0.654),
  ('GGWGSSLGVWVG', 'Saccharomyces cerevisiae', 0.217),
  ('RVGGVVVLGCVG', 'Saccharomyces cerevisiae', 0.56),
  ('RGYSAIWGCKMN', 'Saccharomyces cerevisiae', 0.228),
  ('FFLFLVCLFFFS', 'Saccharomyces cerevisiae', 0.355),
  ('FSFPAFTFIVSI', 'Saccharomyces cerevisiae', 0.329),
  ('RRRGIYARASVV', 'Saccharomyces cerevisiae', 0.276),
  ('SVMTFVFFISAF', 'Saccharomyces cerevisiae', 0.238),
  ('PHHSPPTGPPND', 'Saccharomyces cerevisiae', 0.658),
  ('FLIYMFRHCFFH', 'Saccharomyces cerevisiae', 0.278),
  ('SCLRVYFSVVVS', 'Saccharomyces cerevisiae', 0.288),
  ('WIVQCCLYVPVQ', 'Saccharomyces cerevisiae', 0.237),
  ('CGILACSVCTFF', 'Saccharomyces cerevisiae', 0.436),
  ('FGARCSLSPLVT', 'Saccharomyces cerevisiae', 0.652),
  ('ILHRRCGLLLQI', 'Saccharomyces cerevisiae', 0.278),
  ('HCNRLIFWYKCT', 'Saccharomyces cerevisiae', 0.224),
  ('RWSEHGFLVFLS', 'Saccharomyces cerevisiae', 0.158),
  ('TLCFRLSWVLLV', 'Saccharomyces cerevisiae', 0.0265),
  ('LIAPSACNLFLF', 'Saccharomyces cerevisiae', 0.308),
  ('FVVGFVCSMVWG', 'Saccharomyces cerevisiae', 0.0702);
